- target under test: T1, CTLA4-Fc (Fitzgerald, #30R-CD152) (human, UniProt P16410 38-152)
- T1 construct: Bought; also called human CTLA-4 (Fitzgerald); biotinylated-CTLA4; not shown: Fc part of the bought fusion, not described
- T1 sequence (P16410 38-152 limits assumed): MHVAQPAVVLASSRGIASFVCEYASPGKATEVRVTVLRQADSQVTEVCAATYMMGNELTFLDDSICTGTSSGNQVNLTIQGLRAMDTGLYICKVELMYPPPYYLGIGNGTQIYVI
- test method notes: SPR (Biacore), immobilised CTLA4-Fc
reported property: koff
Give the value; after it, write the unit.

- CD86 mutant 1039 (ligand, Variant of the CD86 extracellular domain) APLKIQAYFNETADLPCQFANSQNLSLSELVVFWQDQENLVLNEVYLGKEKFDSVSSKYMGRTSFDSDSWTLRLHNLQIKDKGIYQCIIHHKKPSGMVKIHQMDSELSVLA: 0.0085 s⁻¹

For each of the binders below, note its koff.
1. CD86 mutant H79A (Peach et al.) (ligand, also called Prior Art) APLKIQAYFNETADLPCQFANSQNQSLSELVVFWQDQENLVLNEVYLGKEKFDSVASKYMGRTSFDSDSWTLRLHNLQIKDKGLYQCIIHHKKPTGMIRIHQMNSELSVLA
2. CD86 mutant 1040 (ligand, Variant of the CD86 extracellular domain) APLKIQAYFNETADLPCQFANSQNLSLSELVVFWQDQENLVLNEVYLGKERFDSVDSKYMGRTSFDSDSWTLRLHNLQIKDKGRYQCIIHHKKPTGMINIHQMNSELSVLA
3. CD86 mutant 1038 (ligand, Variant of the CD86 extracellular domain) APLKIQAYFNETADLPCQFANSQNLSLSELVVFWQDQENLVLNEVYLGKEKFDSVDSKYMGRTSFDSDSWTLRLHNLQIKDKGIYQCIIHHKKPTGMVKIHEMNSELSVLA

Ans:
1. 0.022 s⁻¹
2. 0.0032 s⁻¹
3. 0.012 s⁻¹
